Origin of measurements: paper PMC10326257

# pKd per entry for c-MET (Homo sapiens)
Answers are plain numbers, as −log10 of the molar value.

molecule | pKd
CN1C(=O)CCC(N2C(=O)c3ccc(N4CCN(C(=O)CN5CCC(COc6cnc(-c7cccc(Cn8nc(-c9cccc(C#N)c9)ccc8=O)c7)nc6)CC5)CC4)cc3C2=O)C1=O (centres unmarked) [D16] | 6.46

Moving on to the next molecule.
Lookup: Give a short answer stating reported pKd for N#Cc1cccc(-c2ccc(=O)n(Cc3cccc(-c4ncc(OCC5CCNCC5)cn4)c3)n2)c1 [compound 6] .
Found: 8.00

* * *

assay: Pharmacokinetic study in rats; set-up: species or system Male Sprague–Dawley (SD) rats; settings: male, Sprague-Dawley, rat, in vivo, iv, 1 mg/kg, CL
measured property: clearance (L/h/kg)
Answers are plain numbers, in L/h/kg.

Lookup: Give a short answer stating reported clearance for CN1CCC(COc2cnc(-c3cccc(Cn4nc(-c5cccc(C#N)c5)ccc4=O)c3)nc2)CC1 .
Found: 4.2
